- procedure-details: in vitro
- details: African green monkey
measurement-kind: IC50 (µM)
A number alone suffices; assume µM.

## Input GET /values?readout=IC50&item= C[C@H]1[C@@H](O)O[C@@H]2O[C@@]3(C)CC[C@H]4[C@H](C)CC[C@@H]1[C@@]24OO3 [DHA, dihydroartemisinin]
## Output 21.6
